# reported log10(Ki); entries follow
- tested on: rat MCH1 receptor (Rattus norvegicus)
- Construct: operatively linked to DNA encoding the rat MCH1 receptor so as to permit expression thereof
- assay comment: Radioligand binding assay at cloned rat MCH1 receptor ([3H]Compound A)
- run parameters: cloned rat MCH1, Peakr293 cell membranes, 0.08 nM [3H]Compound A, 25° C., 90 minutes; read-out: Ki(MCH-1)
Scale: decimal log of Ki, Ki in nM.

Known log10(Ki) results, listed for orientation:
compound="O=C(Nc1cccc(C2CCN(CCCNC(=O)C(c3ccccc3)(c3ccccc3)c3ccccc3)CC2)c1)C1CC1 [Example 114]" result_number=0.60
compound="CC(C)C(=O)Nc1cccc(C2CCN(CCCNC(=O)C(C)(C)c3ccc(Cl)cc3)CC2)n1 [Example 88]" result_number=1.36

For rat MCH1 receptor (Rattus norvegicus), provide log10(Ki) of CC(C)C(=O)Nc1ccc(F)c(C2CCN(CCCNC(=O)C3(c4ccc(Cl)cc4)CCCC3)CC2)c1 [Example 128] please.
0.46

Notebook entry, rat MCH1 receptor (Rattus norvegicus) assay: log10(Ki) of COc1ccc(NC(=O)C(C)C)cc1C1CCN(CCCNC(=O)C(c2ccc(F)cc2)c2ccc(F)cc2)CC1 [Example 23] = ?
1.12

Value wanted: log10(Ki) (rat MCH1 receptor (Rattus norvegicus)) of entry CC(=O)Nc1cccc(C2CCN(CCCNC(=O)C(C)(C)c3ccc(Cl)cc3)CC2)c1 [Example 79]
0.77

I'm curious: which log10(Ki) was measured for Cc1ccc(NC(=O)C(C)C)cc1C1CCN(CCCNC(=O)C2(c3ccc(Cl)cc3)CCC2)CC1 [Example 86] tested on rat MCH1 receptor (Rattus norvegicus)?
0.51

For the record CCC(=O)Nc1cccc(C2CCN(CCCNC(=O)C(c3ccc(F)cc3)c3ccc(F)cc3)CC2)c1 [Example 21] , what value of log10(Ki) is listed for rat MCH1 receptor (Rattus norvegicus)?
-0.15

###

- tested on: rat MCH1 receptor (Rattus norvegicus, UniProt P97639)
- Construct: operatively linked to DNA encoding the rat MCH1 receptor so as to permit expression thereof
- Sequence (P97639 whole entry): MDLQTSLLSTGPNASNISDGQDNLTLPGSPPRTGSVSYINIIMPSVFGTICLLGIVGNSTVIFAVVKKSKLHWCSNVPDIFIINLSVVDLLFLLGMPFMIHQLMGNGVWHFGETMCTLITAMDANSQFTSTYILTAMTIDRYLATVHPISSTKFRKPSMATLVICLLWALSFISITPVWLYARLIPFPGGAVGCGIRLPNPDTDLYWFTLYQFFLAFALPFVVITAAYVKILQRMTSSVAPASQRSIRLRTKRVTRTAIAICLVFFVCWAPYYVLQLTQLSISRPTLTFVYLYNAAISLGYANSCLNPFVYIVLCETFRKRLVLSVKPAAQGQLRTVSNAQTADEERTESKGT
- assay comment: Radioligand binding assay at cloned rat MCH1 receptor ([3H]Compound A)
- run parameters: cloned rat MCH1, Peakr293 cell membranes, 0.08 nM [3H]Compound A, 25° C., 90 minutes; read-out: Ki(MCH-1)
measurement type: pKi
To interpret pKi, take it as minus log10 of a concentration measured in moles per litre.

Here are 2 molecules together with their reported answers.
smiles_notation=CCCC(=O)Nc1cccc(C2CCN(CCCNC(=O)C3(c4ccc(Cl)cc4)CC3)CC2)c1 result_number=7.40
smiles_notation=O=C(Nc1cccc(C2CCN(CCCNC(=O)C3(c4ccc(Cl)cc4)CCCC3)CC2)c1)C1CC1 result_number=8.49

Bench note: what pKi did Cc1ccc(NC(=O)C(C)C)cc1C1CCN(CCCNC(=O)C(C)(c2ccccc2)c2ccccc2)CC1 show?
8.59

Query: pKi; subject: CCN(CCCN1CCC(c2cccc(NC(=O)C(C)C)c2)CC1)C(=O)C(c1ccccc1)c1ccccc1
8.52

Report pKi for CCCC(=O)Nc1cccc(C2CCN(CCCNC(=O)C(c3ccc(F)cc3)c3ccc(F)cc3)CC2)c1 please.
8.96

pKi for CC(C)C(=O)Nc1c(F)cc(F)c(C2CCN(CCCNC(=O)C(c3ccc(F)cc3)c3ccc(F)cc3)CC2)c1F ?
8.60

###

Below, each entry is listed alongside its reported Ki.
- tested on: rat MCH1 receptor (Rattus norvegicus, UniProt P97639)
- Construct: operatively linked to DNA encoding the rat MCH1 receptor so as to permit expression thereof
- assay comment: Radioligand binding assay at cloned rat MCH1 receptor ([3H]Compound A)
- run parameters: cloned rat MCH1, Peakr293 cell membranes, 0.08 nM [3H]Compound A, 25° C., 90 minutes; read-out: Ki(MCH-1)
Answer in nM, number only, no unit symbol.

Below are worked cases with known answers.
smiles_notation=CC(C)C(=O)Nc1cccc(C2CCN(CCCNC(=O)C3(c4ccc(F)cc4)CCCC3)CC2)c1 measurement_type=Ki result_number=11
smiles_notation=CC(=O)Nc1cccc(C2CCN(CCCNC(=O)C3(c4ccc(Cl)cc4)CCCCC3)CC2)c1 measurement_type=Ki result_number=4.7
smiles_notation=CC(C)C(=O)Nc1cccc(C2CCN(CCCNC(=O)C3(c4ccc(Cl)cc4)CCC3)CC2)n1 measurement_type=Ki result_number=32.4

Kindly consider the entry below.
Fill in the blank: the reported Ki of CC(C)C(=O)Nc1cccc(C2CCN(CCCNC(=O)C(c3ccc(F)cc3)c3ccc(F)cc3)CC2)c1 is ____.
1.3

###

- tested on: rat MCH1 receptor (Rattus norvegicus, UniProt P97639)
- Construct: operatively linked to DNA encoding the rat MCH1 receptor so as to permit expression thereof
- assay comment: Radioligand binding assay at cloned rat MCH1 receptor ([3H]Compound A)
- run parameters: cloned rat MCH1, Peakr293 cell membranes, 0.08 nM [3H]Compound A, 25° C., 90 minutes; read-out: Ki(MCH-1)
Recorded Ki values for a group of molecules are listed next.
API: value field is a number in µM; no unit string.

// below: answered molecules
molecule=Cc1ccc(NC(=O)C(C)C)cc1C1CCN(CCCNC(=O)[C@@H](C)c2ccccc2)CC1 tested_on="rat MCH1 receptor (Rattus norvegicus, UniProt P97639)" measurement_type=Ki value_units=µM result_number=0.0244
molecule=CC(C)C(=O)Nc1cccc(C2CCN(CCCNC(=O)C(C)(C)c3ccc(Cl)cc3)CC2)c1 tested_on="rat MCH1 receptor (Rattus norvegicus, UniProt P97639)" measurement_type=Ki value_units=µM result_number=0.0117
molecule=CC(C)C(=O)Nc1cccc(C2CCN(CCCNC(=O)C(c3ccccc3)c3ccccc3)CC2)n1 tested_on="rat MCH1 receptor (Rattus norvegicus, UniProt P97639)" measurement_type=Ki value_units=µM result_number=0.0056

Then there is this molecule:
Report Ki for CC[C@H](C(=O)NCCCN1CCC(c2cc(NC(=O)C(C)C)ccc2C)CC1)c1ccccc1 please.
0.02

###

- tested on: rat MCH1 receptor (Rattus norvegicus)
- Construct: operatively linked to DNA encoding the rat MCH1 receptor so as to permit expression thereof
- assay comment: Radioligand binding assay at cloned rat MCH1 receptor ([3H]Compound A)
- run parameters: cloned rat MCH1, Peakr293 cell membranes, 0.08 nM [3H]Compound A, 25° C., 90 minutes; read-out: Ki(MCH-1)
Reported Ki is given for each of the following molecules.
Express your answer in nM, writing the number without its unit.

molecule="CC(C)C(=O)Nc1ccc(F)c(C2CCN(CCCNC(=O)C(C)(C)c3ccc(Cl)cc3)CC2)c1 [Example 127]" measurement_type=Ki result_number=175
molecule="Cc1ccc(NC(=O)C(C)C)cc1C1CCN(CCCNC(=O)C(c2ccc(Cl)cc2)c2ccc(Cl)cc2)CC1 [Example 52]" measurement_type=Ki result_number=4.1
molecule="CCCC(=O)Nc1cc(C2CCN(CCCNC(=O)C(c3ccc(Cl)cc3)c3ccc(Cl)cc3)CC2)ccc1F [Example 108]" measurement_type=Ki result_number=1.9
molecule="Cc1ccc(NC(=O)C(C)C)cc1C1CCN(CCCNC(=O)C2(c3ccc(Cl)cc3)CCCC2)CC1 [Example 81]" measurement_type=Ki result_number=3.2
molecule="O=C(Nc1cccc(C2CCN(CCCNC(=O)C3(c4ccc(Cl)cc4Cl)CC3)CC2)c1)C1CC1 [Example 117]" measurement_type=Ki result_number=17.9

Fill in: Ki of Cc1ccc(NC(=O)C(C)C)cc1C1CCN(CCCNC(=O)C(c2ccccc2)(c2ccccc2)c2ccccc2)CC1 [Example 94] is ___
3.1

Form field: reported Ki of CCC(=O)Nc1cccc(C2CCN(CCCNC(=O)C3(c4ccc(Cl)cc4)CCCC3)CC2)c1 [Example 62]
31.7

Can you share its Ki? I mean this molecule: O=C(Nc1cccc(C2CCN(CCCNC(=O)C(c3ccc(F)cc3)c3ccc(F)cc3)CC2)c1)OCc1ccccc1 [Example 141]
8.8

For the molecule shown here, Cc1ccc(NC(=O)C(C)C)cc1C1CCN(CCCNC(=O)C(O)c2ccc(F)c(F)c2)CC1 (stereo not drawn) [Example 153] , give the reported Ki.
20.3

Fill in: Ki of CC(C)C(=O)Nc1cccc(C2CCN(CCCNC(=O)C(C)c3ccc(Cl)cc3)CC2)n1 (stereo not drawn) [Example 90] is ___
52.2

Would you mind telling me what Ki value was observed for CC(C)C(=O)Nc1cccc(C2CCN(CCCNC(=O)C(c3ccccc3)(c3ccccc3)c3ccccc3)CC2)c1 [Example 59] ?
4.3

Please give the measured Ki for this molecule: CCCC(=O)Nc1cccc(C2CCN(CCCNC(=O)C3(c4ccc(Cl)cc4)CCCC3)CC2)c1 [Example 102]
7.9

###

- tested on: rat MCH1 receptor (Rattus norvegicus, UniProt P97639)
- Construct: operatively linked to DNA encoding the rat MCH1 receptor so as to permit expression thereof
- assay comment: Radioligand binding assay at cloned rat MCH1 receptor ([3H]Compound A)
- run parameters: cloned rat MCH1, Peakr293 cell membranes, 0.08 nM [3H]Compound A, 25° C., 90 minutes; read-out: Ki(MCH-1)
pKi: −log10 of the molar value.
Please note: y applies when pKi is 8 or greater, and n applies otherwise.

compound="Cc1ccc(C(C(=O)NCCCN2CCC(c3cccc(NC(=O)OC(C)C)c3)CC2)c2ccc(C)cc2)cc1 [Example 145]" category=n
compound="Cc1ccc(NC(=O)C(C)C)cc1C1CCN(CCCNC(=O)C2(c3ccc(F)cc3Cl)CCCC2)CC1 [Example 135]" category=y
compound="CCC(=O)Nc1cccc(C2CCN(CCCNC(=O)C(c3ccccc3)c3c(C)cc(C)cc3C)CC2)c1 (stereo not shown) [Example 14]" category=y
compound="CCC(=O)Nc1cccc(C2CCN(CCCNC(=O)C3(c4ccc(Cl)cc4)CC3)CC2)c1 [Example 63]" category=n
compound="CC(C)C(=O)Nc1cccc(C2CCN(CCCNC(=O)C3(c4ccc(Cl)cc4Cl)CC3)CC2)c1 [Example 41]" category=n

Test whether the compound CCC(=O)Nc1cccc(C2CCN(CCCNC(=O)C(Br)c3ccccc3)CC2)c1 (stereo not shown) [Example 10] records pKi of 8 or higher.
n

Entry O=C(Nc1cccc(C2CCN(CCCNC(=O)C(c3ccccc3)c3ccccc3)CC2)c1)C1CC1 [Example 17] : is its pKi no less than 8?
y

Please tell me: is the compound Cc1ccc(NC(=O)C(C)C)cc1C1CCN(CCCNC(=O)[C@H](C)c2ccc(Cl)cc2)CC1 [Example 167] at or over 8 in terms of pKi?
n

pKi >= 8 for CC(C)C(=O)Nc1cc(C2CCN(CCCNC(=O)C3(c4ccc(Cl)cc4)CC3)CC2)ccc1F [Example 47] ?
n

Is reported pKi greater than or equal to 8 here: CC(C)C(=O)Nc1ccc(C2CCN(CCCNC(=O)C(c3ccccc3)c3ccccc3)CC2)cc1 [Example 148]
n

Has CC(C)C(=O)Nc1cccc(C2CCN(CCCNC(=O)C(c3ccc(Cl)cc3)c3ccc(Cl)cc3)CC2)c1 [Example 2] a recorded pKi greater than or equal to 8?
y

Test whether the compound Cc1ccc(NC(=O)C(C)C)cc1C1CCN(CCCNC(=O)[C@H](C)c2ccc(F)cc2)CC1 [Example 169] records pKi of 8 or higher.
n

Answer whether pKi of CCCC(=O)Nc1cccc(C2CCN(CCCNC(=O)C(C)c3ccc(Cl)cc3)CC2)c1 (stereo not shown) [Example 77] is greater than or equal to 8.
n

Confirm if pKi reported for the compound CC(C)C(=O)Nc1cccc(C2CCN(CCCNC(=O)C3(c4ccc(Cl)cc4)CCCCC3)CC2)c1 [Example 45] is 8 or above.
y

Say whether Cc1ccc(NC(=O)C(C)C)cc1C1CCN(CCCNC(=O)C(C)(C)c2ccc(Cl)cc2)CC1 [Example 91] shows pKi of 8 or more.
y

Quick check, pKi >= 8? CC(=O)Nc1cccc(C2CCN(CCCNC(=O)C(C)c3ccc(Cl)cc3)CC2)c1 (stereo not shown) [Example 95]
n

Please indicate if the recorded pKi for Cc1ccc(NC(=O)C(C)C)cc1C1CCN(CCCNC(=O)C(C)c2ccc(Cl)cc2)CC1 (stereo not shown) [Example 100] meets or exceeds 8.
y

Is reported pKi greater than or equal to 8 here: CCC(=O)Nc1cccc(C2CCN(CCCNC(=O)C3(c4ccc(F)cc4)CCCC3)CC2)c1 [Example 60]
n

Assess whether reported pKi for CC(C)C(=O)Nc1ccc(F)c(C2CCN(CCCNC(=O)C(c3ccc(F)cc3)c3ccc(F)cc3)CC2)c1 [Example 35] sits at 8 or higher.
y

Item O=C(Nc1cccc(C2CCN(CCCNC(=O)C(c3ccc(Cl)cc3)c3ccc(Cl)cc3)CC2)c1)C1CC1 [Example 113] with pKi of 8 or above?
y

Does CCCC(=O)Nc1ccc(OC)c(C2CCN(CCCNC(=O)C(c3ccc(F)cc3)c3ccc(F)cc3)CC2)c1 [Example 26] have a reported pKi of at least 8?
n

Entry CC(C)C(=O)Nc1cccc(C2CCN(CCCNC(=O)C3(c4ccc(Cl)cc4)CC3)CC2)n1 [Example 76] : is its pKi no less than 8?
n

Decide: pKi of CC(C)C(=O)Nc1cccc(C2CCN(CCCNC(=O)C(c3ccc(Cl)cc3)c3ccc(Cl)cc3)CC2)n1 [Example 50] >= 8?
y
